# Measured target: human CLDN-18.2 (human, UniProt P56856-2 1-261)
# Method notes: cell-based or functional assay
Quantity: EC50 of ADCC effect (Jurkat ADCC NFAT luciferase reporter cells) (µg/mL)

[
  {
    "Binder": "humanized anti-CLDN-18.2 antibody JS012-Chi9-hu7-v2 (antibody, human IgG1, kappa, V domains shown) VH: QVQLVQSGSELKKPGESVKVSCKASGYTFTNYGMNWVRQAPGQGLEWMGWINTYTGESTYADGFTGRFVFSMDTSASTAYLQISSLKAEDMAMYFCATLGYGNSLAYWGQGTLVTVSS VL: DIVMTQSPDSLAVSLGERATINCKSSQSLLNSGNQRNYLTWYQQKPGQPPKLLIYWASTRESGVPDRFSGSGSGTDFTLTISSLQAEDVAVYYCQNNYFYPFTFGQGTKLEIKR",
    "Readout units": "µg/mL",
    "Experimental value": 0.0225
  },
  {
    "Binder": "humanized anti-CLDN-18.2 antibody JS012-Chi27-hu3-v2 (antibody, human IgG1, V domains shown) VH: EVQLVESGGGLVKPGGSLRLSCAASGFTFSSYGMSWVRQAPGKGLEWVSTISGGDSYTYYPDSVRGRFTISRDNAKNSLYLQMNSLRAEDTAVYYCARSYNGNSLPYWGQGTLVTVSS VL: DIVMTQSPDSLAVSLGERATINCKSSQSLLNSGNQRNYLTWYQQKPGQPPKLLIYWASTRESGVPDRFSGSGSGTDFTLTISSLQAEDVAVYYCQNNYFYPFTFGQGTKLEIK",
    "Readout units": "µg/mL",
    "Experimental value": 0.0358
  },
  {
    "Binder": "humanized anti-CLDN-18.2 antibody JS012-Chi2-hu2-v3-2 (antibody, human IgG1, kappa, V domains shown) VH: EVQLVESGGGLVQPGGSLRLSCAASGFTLNNFGMHWVRQAPGKGLEWVSSISSGSGTIYYADSVKGRFTISRDNPKNSLYLQMNSLRAEDTAVYYCARAYYGNGFSFWGQGTLVTVSS VL: DIVMTQSPDSLAVSLGERATINCKSSQSLLNSGNQKNYLTWYQQKPGQPPKLLIYWASTRESGVPDRFSGSGSGTDFTLTISSLQAEDVAVYYCQNVYSYPLTFGQGTKLEIKR",
    "Readout units": "µg/mL",
    "Experimental value": 0.0142
  },
  {
    "Binder": "humanized anti-CLDN-18.2 antibody JS012-Chi9-hu7 (antibody, human IgG1, kappa, V domains shown) VH: QIQLVQSGSELKKPGESVKVSCKASGYTFTNYGMNWVRQAPGQGLEWMGWINTYTGESTYADGFTGRFVFSSDTSARTAYLQISSLKAEDTAVYFCATLGYGNSLAYWGQGTLVTVSS VL: DIVMTQSPDSLAVSLGERATINCKSSQSLLNSGNQRNYLTWYQQKPGQPPKLLIYWASTRESGVPDRFSGSGSGTDFTLTISSLQAEDVAVYYCQNNYFYPFTFGQGTKLEIKR",
    "Readout units": "µg/mL",
    "Experimental value": 0.0236
  },
  {
    "Binder": "humanized anti-CLDN-18.2 antibody JS012-Chi27-hu6-v3-2 (antibody, human IgG1, V domains shown) VH: EVQLVESGGGLVKPGGSLRLSCAASGFTFSSYGMSWVRQAPGKGLESVSTISGGDSYTYYPDSVRGRFTISRDIAKNSLYLQMNSLRAEDTAVYYCARSYNGNSLPYWGQGTLVTVSS VL: DIVMTQSPDSLAVSLGERATINCKSSQSLLNSGNQRNYLTWYQQKPGQPPKLLIYWASTRESGVPDRFSGSGSGTDFTLTISSLQAEDVAVYYCQNNYFYPFTFGQGTKLEIK",
    "Readout units": "µg/mL",
    "Experimental value": 0.0742
  }
]
